The entries below are paired with their reported EC50.
# assayed target: T1, RANKL expressed on the surface of 293 cells (UniProt O14788 1-317, limits assumed)
# T1 construct: whole, on cells; also called RANKL-transfected 293 cells; cells expressing RANKL
# T1 sequence (looked up): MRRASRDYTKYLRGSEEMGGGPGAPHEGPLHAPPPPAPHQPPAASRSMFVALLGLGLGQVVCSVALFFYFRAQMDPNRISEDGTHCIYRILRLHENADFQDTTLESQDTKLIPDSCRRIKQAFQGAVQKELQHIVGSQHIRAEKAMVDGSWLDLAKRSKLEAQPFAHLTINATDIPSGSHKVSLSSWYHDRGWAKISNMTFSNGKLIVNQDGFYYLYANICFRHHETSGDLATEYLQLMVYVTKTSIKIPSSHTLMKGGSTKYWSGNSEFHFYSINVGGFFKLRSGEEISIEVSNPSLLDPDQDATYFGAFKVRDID
# assay: flow cytometry (MFI) on RANKL-transfected 293 cells
Lab book: enter the figure in µg/mL, no units written.

clone 220 rabbit anti-RANKL antibody (antibody, V domains shown) VH: QSLEESGGRLVTPGTPLTLTCTVSGFSLSKYEINWVRQAPGKGLEWIGYIDVGSGTWYASWAKGRFTISKTSTTVALRITSPTTEDTATYFCSRQYNPMDLWGPGTLVTVSS VL: DMTQTPASVEAAVGGTVTIKCQASQNIGSNLAWYQQKPGQRPKLLIYSASTLASGVPSRFKGSGSGTQFTLTISGVQCDDAATYYCQQGYSVGNVNNAFGGGTEVVVK :: 0.153

Consider the additional binder presented here.
// EC50 value for clone 238 rabbit anti-RANKL antibody (antibody, V domains shown) VH: QEQLKESGGGLVTPGGTLTLTCTASGFSLNTNAMSWVRQAPGKGLEWIGYIYSGGSPYYANWAKGRFTISRTSTTVHLKMTSLTTEDTATYFCASHTSGGGWYLDIWGPGTLVTVSL VL: DMIQTPASVEVAVGGTVTINCQASQNIGSNLAWYQQKPGQPPKLLIYGTSTLASGVSSRFKGSGFGTQFTFTISDVECTDAATYYCQQAYSTSKIDNAFGGGTEVVVK : 0.2
